# subject of test: UniProt Q99572
# assay remarks: Screen Quest Fluo-8 No Wash Calcium Assay (Bz-ATP evoked Ca2+ influx, FLIPR)
# Format: cell-based
# Set-up: hP2X7 (IC50; nM); other: hP2X7; HEK-293 cells stably transfected with P2X7 receptor, Bz-ATP at EC80, Fluo-8 NW; potency
# recorded conditions: hP2X7; HEK-293 cells stably transfected with P2X7 receptor, Bz-ATP at EC80, Fluo-8 NW; potency ranges A-D
Quick reference for IC50 among some molecules

[
  {
    "smiles data": "O=c1onc(Cc2cccc(F)c2)n1CC1CCCCC1",
    "IC50": "1000 to 10000 nM"
  },
  {
    "smiles data": "O=c1onc(Cc2ccc(F)cc2Cl)n1CC1CCC(F)(F)CC1",
    "IC50": "> 10000 nM"
  },
  {
    "smiles data": "CC(C)(c1c(F)cccc1Cl)c1noc(=O)n1CC1CCCCC1",
    "IC50": "> 10000 nM"
  },
  {
    "smiles data": "O=c1onc(Cc2c(F)cccc2Cl)n1Cc1cncnc1",
    "IC50": "> 10000 nM"
  }
]

###

# subject of test: P2X7 receptor (Homo sapiens)
# Sequence (Q99572 whole entry): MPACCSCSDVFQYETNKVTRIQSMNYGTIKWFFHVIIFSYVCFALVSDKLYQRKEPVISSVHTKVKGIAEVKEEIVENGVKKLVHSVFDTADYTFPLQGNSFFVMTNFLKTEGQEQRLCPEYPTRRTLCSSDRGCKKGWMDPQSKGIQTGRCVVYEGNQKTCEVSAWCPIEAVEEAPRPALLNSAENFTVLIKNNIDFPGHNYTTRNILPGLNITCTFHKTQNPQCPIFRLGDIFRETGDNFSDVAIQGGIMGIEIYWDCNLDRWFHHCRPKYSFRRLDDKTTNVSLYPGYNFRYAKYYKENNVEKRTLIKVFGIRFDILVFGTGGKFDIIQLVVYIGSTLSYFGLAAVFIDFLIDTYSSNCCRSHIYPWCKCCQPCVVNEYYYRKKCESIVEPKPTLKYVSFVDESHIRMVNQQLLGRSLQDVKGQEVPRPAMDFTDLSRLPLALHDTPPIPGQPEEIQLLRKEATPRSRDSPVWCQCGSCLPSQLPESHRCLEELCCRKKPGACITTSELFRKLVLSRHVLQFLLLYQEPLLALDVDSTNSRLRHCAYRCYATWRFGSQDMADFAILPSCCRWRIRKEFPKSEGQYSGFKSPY
# assay remarks: Screen Quest Fluo-8 No Wash Calcium Assay (Bz-ATP evoked Ca2+ influx, FLIPR)
# Assay type: cell-based
# Design: hP2X7 (IC50; nM); other: hP2X7; HEK-293 cells stably transfected with P2X7 receptor, Bz-ATP at EC80, Fluo-8 NW; potency
# recorded conditions: hP2X7; HEK-293 cells stably transfected with P2X7 receptor, Bz-ATP at EC80, Fluo-8 NW; potency ranges A-D
Listed next: entries and their corresponding IC50.

[
  {
    "compound": "O=c1onc(Cc2ccccc2Cl)n1Cc1ccc(F)cc1 [Example 76]",
    "IC50": "200 to 1000 nM"
  },
  {
    "compound": "O=c1onc(CC2CCC(F)(F)CC2)n1Cc1c(F)cccc1Cl [Example 132]",
    "IC50": "< 200 nM"
  },
  {
    "compound": "CC(c1c(F)cccc1Cl)c1noc(=O)n1CC1CCCCC1 (centres unmarked) [Example 122]",
    "IC50": "> 10000 nM"
  },
  {
    "compound": "O=c1onc(CN2CCC(F)(F)CC2)n1Cc1ccc(F)cc1 [Example 221]",
    "IC50": "> 10000 nM"
  },
  {
    "compound": "O=c1onc(Cc2ccccc2)n1Cc1c(F)cccc1Cl [Example 6]",
    "IC50": "1000 to 10000 nM"
  }
]

###

Listed here: items and their measured IC50.
# subject of test: P2X7 receptor (Homo sapiens)
# assay remarks: Screen Quest Fluo-8 No Wash Calcium Assay (Bz-ATP evoked Ca2+ influx, FLIPR)
# Type: cell-based
# Set-up: hP2X7 (IC50; nM); other: hP2X7; HEK-293 cells stably transfected with P2X7 receptor, Bz-ATP at EC80, Fluo-8 NW; potency
# recorded conditions: hP2X7; HEK-293 cells stably transfected with P2X7 receptor, Bz-ATP at EC80, Fluo-8 NW; potency ranges A-D

[
  {
    "compound": "CC(c1ccc(F)cc1)n1c(Cc2ccc(F)cc2)noc1=O (centres unmarked)",
    "subject of test": "P2X7 receptor (Homo sapiens)",
    "IC50": "1000 to 10000 nM"
  },
  {
    "compound": "O=c1onc(Cc2ccc(F)cc2)n1Cc1ccc(F)cc1F",
    "subject of test": "P2X7 receptor (Homo sapiens)",
    "IC50": "> 10000 nM"
  },
  {
    "compound": "O=c1onc(Cc2c(F)cccc2Cl)n1Cc1ccccn1",
    "subject of test": "P2X7 receptor (Homo sapiens)",
    "IC50": "> 10000 nM"
  },
  {
    "compound": "O=c1onc(Cc2ccc(F)cc2)n1Cc1cccc(Cl)c1Cl",
    "subject of test": "P2X7 receptor (Homo sapiens)",
    "IC50": "> 10000 nM"
  },
  {
    "compound": "O=c1onc(Cc2c(F)cccc2Cl)n1CC1CCC(F)CC1 (centres unmarked)",
    "subject of test": "P2X7 receptor (Homo sapiens)",
    "IC50": "< 200 nM"
  },
  {
    "compound": "CC1(C)CCCCC1Cn1c(Cc2c(F)cccc2Cl)noc1=O (centres unmarked)",
    "subject of test": "P2X7 receptor (Homo sapiens)",
    "IC50": "200 to 1000 nM"
  },
  {
    "compound": "O=c1onc(Cc2c(F)cccc2Cl)n1Cc1c(F)cccc1Cl",
    "subject of test": "P2X7 receptor (Homo sapiens)",
    "IC50": "1000 to 10000 nM"
  },
  {
    "compound": "O=c1onc(CN2CCOc3ccccc32)n1Cc1c(F)cccc1Cl",
    "subject of test": "P2X7 receptor (Homo sapiens)",
    "IC50": "1000 to 10000 nM"
  },
  {
    "compound": "O=c1onc(CC2CCC(F)(F)CC2)n1Cn1ccc(C(F)(F)F)n1",
    "subject of test": "P2X7 receptor (Homo sapiens)",
    "IC50": "> 10000 nM"
  },
  {
    "compound": "CC(C)Cn1c(Cc2c(F)cccc2Cl)noc1=O",
    "subject of test": "P2X7 receptor (Homo sapiens)",
    "IC50": "1000 to 10000 nM"
  },
  {
    "compound": "O=c1onc(Cc2c(F)cccc2Cl)n1CCCN1CCCCC1",
    "subject of test": "P2X7 receptor (Homo sapiens)",
    "IC50": "> 10000 nM"
  },
  {
    "compound": "Cc1nc(Cn2c(CC3CCC(F)(F)CC3)noc2=O)no1",
    "subject of test": "P2X7 receptor (Homo sapiens)",
    "IC50": "> 10000 nM"
  },
  {
    "compound": "O=c1onc(Cc2c(F)cccc2Cl)n1Cc1ccc(F)cc1F",
    "subject of test": "P2X7 receptor (Homo sapiens)",
    "IC50": "200 to 1000 nM"
  },
  {
    "compound": "O=c1onc(CC2CCC(F)(F)CC2)n1Cc1ccc(C(F)(F)F)nc1",
    "subject of test": "P2X7 receptor (Homo sapiens)",
    "IC50": "> 10000 nM"
  },
  {
    "compound": "O=c1onc(Cc2ccc(F)cc2)n1Cc1c(F)cccc1Cl",
    "subject of test": "P2X7 receptor (Homo sapiens)",
    "IC50": "200 to 1000 nM"
  },
  {
    "compound": "O=c1onc(Cc2c(F)cccc2Cl)n1CC1CC=CC1",
    "subject of test": "P2X7 receptor (Homo sapiens)",
    "IC50": "200 to 1000 nM"
  },
  {
    "compound": "O=c1onc(Cc2c(F)cccc2Cl)n1Cc1ccc(F)cc1Cl",
    "subject of test": "P2X7 receptor (Homo sapiens)",
    "IC50": "200 to 1000 nM"
  },
  {
    "compound": "CC(c1ccc(F)cc1)n1c(CC2CCCCC2)noc1=O (centres unmarked)",
    "subject of test": "P2X7 receptor (Homo sapiens)",
    "IC50": "1000 to 10000 nM"
  },
  {
    "compound": "Cc1nn(C)c(C)c1Cc1noc(=O)n1CC1CCCCC1",
    "subject of test": "P2X7 receptor (Homo sapiens)",
    "IC50": "< 200 nM"
  },
  {
    "compound": "O=c1onc(CN2CCCC(F)(F)C2)n1Cc1ccc(F)cc1",
    "subject of test": "P2X7 receptor (Homo sapiens)",
    "IC50": "> 10000 nM"
  },
  {
    "compound": "O=c1onc(Cc2ccc(Cl)cc2Cl)n1CC1CCCCC1",
    "subject of test": "P2X7 receptor (Homo sapiens)",
    "IC50": "200 to 1000 nM"
  },
  {
    "compound": "O=c1onc(Cc2c(F)cccc2Cl)n1Cc1cnco1",
    "subject of test": "P2X7 receptor (Homo sapiens)",
    "IC50": "> 10000 nM"
  },
  {
    "compound": "O=c1onc(C(O)c2cccc(Cl)c2Cl)n1Cc1c(F)cccc1Cl (centres unmarked)",
    "subject of test": "P2X7 receptor (Homo sapiens)",
    "IC50": "1000 to 10000 nM"
  },
  {
    "compound": "Cc1nc(C(F)(F)F)ccc1Cn1c(CC2CCC(F)(F)CC2)noc1=O",
    "subject of test": "P2X7 receptor (Homo sapiens)",
    "IC50": "> 10000 nM"
  },
  {
    "compound": "O=c1onc(C(O)c2cccc(C(F)(F)F)c2Cl)n1Cc1c(F)cccc1Cl (centres unmarked)",
    "subject of test": "P2X7 receptor (Homo sapiens)",
    "IC50": "200 to 1000 nM"
  },
  {
    "compound": "O=c1onc(CC2CCC(F)(F)CC2)n1Cc1cccc(C(F)(F)F)c1Cl",
    "subject of test": "P2X7 receptor (Homo sapiens)",
    "IC50": "> 10000 nM"
  }
]
